system: Influenza B virus; test: Antiviral activity against influenza B/Jifang/13/97 virus in MDCK cells by CPE assay; type: functional, organism-based
Listed compounds paired with reported IC50

| COMPOUND | MEASUREMENT_TARGET | IC50 (µM) |
| --- | --- | --- |
| CCCCCCCCCCCCCCCCCCOCCOC(=O)C1=C[C@H](NC(=N)N)[C@@H](NC(C)=O)[C@H]([C@H](O)[C@H](O)CO)O1 | Influenza B virus | 247 |
| CCCCCCCCCCCCCCCCOCCCOC(=O)C1=C[C@H](NC(=N)N)[C@@H](NC(C)=O)[C@H]([C@H](O)[C@H](O)CO)O1 | Influenza B virus | 23.4 |
| CCCCCCCCCCCCCCOCCCOC(=O)C1=C[C@H](NC(=N)N)[C@@H](NC(C)=O)[C@H]([C@H](O)[C@H](O)CO)O1 | Influenza B virus | 31.5 |
| NC(=O)c1ncn([C@@H]2O[C@H](CO)[C@@H](O)[C@H]2O)n1 [RIBAVIRIN] | Influenza B virus | 96.2 |
